# System: escherichia coli
# assay_info: Minimum inhibitory concentration in vitro, doubling dilutions
# Assay type: cell-based
# measurement_parameters: read-out: Minimum inhibitory concentration (MIC), Eserichia coli SS1107A
Examples of compounds with documented MIC follow.
Give a bare numeral; the unit µg/mL is implied.

Look over these answered cases.
- compound: "CCCCCc1cccc(=O)c(O)c1"
  reported_endpoint: "MIC"
  unit_of_measure: "µg/mL"
  measured_value: 12.5
- compound: "CC(C)c1cccc(=O)c(O)c1 [IST_001_002, reference compound]"
  reported_endpoint: "MIC"
  unit_of_measure: "µg/mL"
  measured_value: 25
- compound: "O=c1cccc(Cc2ccccc2)cc1O"
  reported_endpoint: "MIC"
  unit_of_measure: "µg/mL"
  measured_value: 25

Entry CCc1cccc(=O)c(O)c1 has what MIC? 50

Entry O=c1cccc(CCCF)cc1O has what MIC? 100

FYI, the data here is from patent US20160316790A1.
